Test system: M. tuberculosis H37Rv growth inhibition with meropenem
Assay: dose response, H37Rv, with and without meropenem (AID 434987);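 note: growth over 7 days at 37 °C before Alamar Blue read on day 9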
Settings: M. tuberculosis H37Rv growth inhibition; measured here: IC50 without meropenem

molecule	IC50
CCc1nnc(NC(=O)c2ccc3nc(CC)c(CC)nc3c2)s1	> 100 µM
CN(Cc1ccccc1)C(=S)NC(=O)c1ccc(-c2ccccc2)cc1	24.2 µM
Cc1cc(N2CCN(c3ccccc3)CC2)nc2ccccc12	> 100 µM
CC(C)CC(=O)NC(=S)Nc1ccc(N2CCN(C(=O)c3cccs3)CC2)cc1	> 100 µM
COc1ccc(/C=C2/CCCC(C(=O)C(F)(F)F)=C2O)cc1OC	96.9 µM
CN(/N=C/c1ccncc1)c1cnc2ccccc2n1	> 100 µM
O=C(Nc1ccc(C(F)(F)F)cc1)c1cc(-c2cccnc2)nc2ccc(Br)cc12	> 100 µM
O=C1OC(/C=C/c2ccccc2)=NC/1=C/c1ccco1	3.11 µM
CCOc1cc(CNCCN(C)C)c(Cl)cc1OCC(=O)NCCc1ccccc1	> 100 µM
Cc1cc(NC(=O)CSc2ncnc3c2cnn3-c2ccccc2)no1	> 100 µM
CCCC(=O)Nc1ccc(NC(=S)NC(=O)c2cccs2)cc1	> 100 µM
Cc1c(-c2ccccc2)cnc2c(C)cccc12	95.6 µM
COc1cc(OC)c2ccc(=O)oc2c1C(CC(=O)N1CCN(c2ccccc2)CC1)c1ccc2c(c1)OCO2 (centres undefined)	> 100 µM
CNc1ccccc1NC(=O)C1CCCN1C(=O)OCc1ccccc1 (centres undefined)	> 100 µM
Cc1ccc(C(=O)Nc2ccc(N3CCN(C(=O)c4cccs4)CC3)cc2)c(Cl)c1	> 100 µM
Cc1ccc(CN2CCSc3ccc(C(=O)NC4CCN(Cc5ccccc5)CC4)cc32)cc1	> 100 µM
COc1ccc2[nH]c3c(c2c1)CCN=C3C	> 100 µM
COc1ccc(C(=O)NC(=S)Nc2ccc(S(=O)(=O)Nc3cc(C)on3)cc2)cc1OC	36.5 µM
CCC(=O)NC(=S)Nc1ccc(NC(=O)c2ccccc2[N+](=O)[O-])cc1	> 100 µM
COc1ccc(OC)c(-c2cc(C(=O)Nc3c(C)nn(Cc4ccccc4C)c3C)no2)c1	> 100 µM
O=S(=O)(Nc1cccc(-c2ccc(N3CCCCCC3)nn2)c1)c1ccccc1Cl	> 100 µM
Cc1ccc(/C=C2/SC(=S)N(CC(=O)Nc3ncc(Cc4ccc(C)cc4)s3)C2=O)cc1	> 100 µM
Nc1c(C(=O)NC2CC2)c2nc3ccccc3nc2n1-c1ccc2c(c1)OCO2	88.5 µM
Cc1cc(Br)cc2c(C(=O)NCC3CCCO3)cc(-c3ccccc3)nc12 (centres undefined)	> 100 µM
O=C1c2cccc3c(N4CCCCC4)ccc(c23)C(=O)N1c1ccccn1	> 100 µM
CCOc1cccc(/C=N/Nc2nc(N3CCCC3)nc(N3CCCC3)n2)c1O	> 100 µM
COc1cc(NC(=O)c2ccccc2)c(OC)cc1NC(=O)CN1CCOCC1	32.1 µM
COc1cc(C(=O)Nc2cccc(-c3cn4cccnc4n3)c2)cc(OC)c1OC	35 µM
OCCOCCn1c(C2CCCN2c2nc(-c3ccc(F)cc3)cs2)nc2cc(Cl)c(Cl)cc21 (centres undefined)	> 100 µM
C/C(=N\NC(=O)c1cc2c(s1)CCC(C)C2)c1ccc[nH]1 (centres undefined)	> 100 µM
COc1cc(OC)c(OC)cc1/C=C1\CCC(C2CCCC2)C1=O (centres undefined)	77.5 µM
COc1ccccc1N1CCN(/N=C/c2cccc(OC)c2OC)CC1	> 100 µM
CCc1nc2scc(-c3cccs3)c2c(=O)o1	> 100 µM
CSc1nnc(-c2ccc(NC(N)=S)cc2)o1	> 100 µM
COc1ccc2c(c1)c(C(C)=O)c(C)n2-c1ccccc1	> 100 µM
O=C(Nc1ccc(Br)cc1)c1cccnc1N1CCCCC1	> 100 µM
O=C(N/N=C/c1cccc(Br)c1)c1ccc(Cn2cc(Br)cn2)o1	> 100 µM
CN(C)CCCN(C(=O)/C=C/c1cccs1)c1nc2ccc(F)cc2s1	45.8 µM
O=C(c1cccc(Cl)c1)N1CCN(Cc2ccccc2F)CC1	> 100 µM
COc1ccc(NC(=O)c2cc(C)nc3ccccc23)c(OC)c1	31.6 µM
O=C(CC1SC(=O)NC1=O)Oc1ccc(/C=N/NC(=O)c2ccccc2O)cc1 (centres undefined)	41.3 µM
CCOC(=O)c1ccc(N2CN(CCc3ccccc3)CNC2=S)cc1	91.5 µM
COc1ccc(OC)c(C2CC(c3c(-c4ccccc4)c4cc(Cl)ccc4[nH]c3=O)=NN2S(C)(=O)=O)c1 (centres undefined)	> 100 µM
Cc1cc(C)c(NC(=O)CC(C)(C)C)c(Cl)c1	> 100 µM

Source listed as PubChem BioAssay AID434987.
